target: CYP2C19 (Homo sapiens, UniProt P33261)
Sequence (P33261 whole entry): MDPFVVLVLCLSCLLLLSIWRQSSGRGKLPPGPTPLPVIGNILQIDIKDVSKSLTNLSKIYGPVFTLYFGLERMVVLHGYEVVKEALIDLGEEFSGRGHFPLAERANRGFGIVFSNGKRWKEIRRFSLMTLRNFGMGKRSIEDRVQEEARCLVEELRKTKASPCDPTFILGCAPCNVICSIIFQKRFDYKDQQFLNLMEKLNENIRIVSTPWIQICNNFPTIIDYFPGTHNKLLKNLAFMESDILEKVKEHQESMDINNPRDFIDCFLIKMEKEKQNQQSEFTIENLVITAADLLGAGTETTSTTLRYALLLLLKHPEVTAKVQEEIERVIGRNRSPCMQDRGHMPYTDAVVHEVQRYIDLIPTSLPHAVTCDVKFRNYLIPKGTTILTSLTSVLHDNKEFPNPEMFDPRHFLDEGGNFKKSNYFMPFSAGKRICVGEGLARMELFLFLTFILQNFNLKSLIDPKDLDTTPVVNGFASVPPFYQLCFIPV
pIC50: −log10 of the molar value.
If the reported pIC50 equals or exceeds 5, assign y. If not, assign n.

{"compound": "C[C@@H](c1ccc(-c2cncs2)cc1)N1CC[C@](CC(C)(C)O)(c2ccccc2)OC1=O [EXAMPLE 171]", "tested target": "CYP2C19 (Homo sapiens, UniProt P33261)", "group label": "y"}
{"compound": "Cc1cnc(-c2ccc([C@H](C)N3CC[C@](CC(C)(C)O)(c4ccccc4)OC3=O)cc2)cn1 [EXAMPLE 151]", "tested target": "CYP2C19 (Homo sapiens, UniProt P33261)", "group label": "n"}
{"compound": "C[C@@H](c1ccc(-c2ccc([S+](C)[O-])nc2)cc1)N1CC[C@](CC(C)(C)O)(c2ccccc2)OC1=O (stereo partly shown) [EXAMPLE 182]", "tested target": "CYP2C19 (Homo sapiens, UniProt P33261)", "group label": "n"}

In: pIC50 >= 5 for C[C@@H](c1ccc(-c2cc(S(C)(=O)=O)ccn2)cc1)N1CC[C@](CC(C)(C)O)(c2ccccc2)OC1=O [EXAMPLE 185] ?
Out: n

In: Lookup Cc1ncc(-c2ccc([C@H](C)N3CC[C@](CC(C)(C)O)(c4ccccc4)OC3=O)cc2)s1 [EXAMPLE 180]
Out: n
